assay protocol: Inhibition of IspD (unknown origin)
metric: IC50 (µM)
Kindly provide the numeric value in µM only, without the unit symbol.

Measured IC50, O=P(O)(O)OC[C@@H](O)[C@@H](O)CO : 1360

----------
assay target: 2-C-methyl-D-erythritol 4-phosphate cytidylyltransferase, chloroplastic (Arabidopsis thaliana, UniProt P69834)
Sequence (P69834 whole entry): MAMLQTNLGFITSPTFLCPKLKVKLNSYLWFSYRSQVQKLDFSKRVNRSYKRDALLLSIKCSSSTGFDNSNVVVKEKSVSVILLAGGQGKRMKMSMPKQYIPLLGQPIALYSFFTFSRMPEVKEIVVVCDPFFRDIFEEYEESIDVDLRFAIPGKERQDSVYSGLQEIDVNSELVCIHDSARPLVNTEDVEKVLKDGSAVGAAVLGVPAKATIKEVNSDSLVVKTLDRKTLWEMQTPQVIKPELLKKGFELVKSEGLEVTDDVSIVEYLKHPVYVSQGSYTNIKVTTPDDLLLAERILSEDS
metric: pIC50
Scale note: pIC50 = -log10(concentration in M).

pIC50 reading for Oc1c(Cc2ccccc2)c(Cl)nc2ncnn12 : 6.85
